Test: pharmacokinetic study in ICR mice
Format: in vivo
Conditions: male, mouse, plasma, oral 10 mg/kg, mean ± SD of four mice
ENDPOINT: half-life (h)

1. Cc1ccc(-c2ccc(F)cc2NC(=O)c2ccc(OCC(=O)O)c(F)c2)cc1 [Compound 10f] | 1.51

----------
Target: human FFAR4 (Homo sapiens)
Sequence (Q5NUL3 whole entry): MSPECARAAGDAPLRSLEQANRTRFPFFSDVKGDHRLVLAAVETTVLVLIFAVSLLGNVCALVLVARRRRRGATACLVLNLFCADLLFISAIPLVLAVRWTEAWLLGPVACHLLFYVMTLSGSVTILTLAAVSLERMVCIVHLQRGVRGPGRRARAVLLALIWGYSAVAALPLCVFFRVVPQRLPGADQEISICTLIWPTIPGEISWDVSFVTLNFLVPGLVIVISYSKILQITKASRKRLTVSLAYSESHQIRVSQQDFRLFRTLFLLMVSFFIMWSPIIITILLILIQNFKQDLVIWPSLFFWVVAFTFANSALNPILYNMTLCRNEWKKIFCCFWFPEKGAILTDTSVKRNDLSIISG
Assay: cell-based
This section presents molecules with their documented EC50 values.
ENDPOINT: EC50 (nM)

1) Cc1ccc(-c2ccc(F)cc2NC(=O)c2ccc(OCCCCC(=O)O)cc2)cc1 | 236
2) Cc1ccc(-c2ccc(F)cc2NC(=O)c2ccc(OCC(=O)O)cc2)cc1 | 136
3) Cc1ccc(-c2ccc(F)cc2NC(=O)c2ccc(OCCCC(=O)O)c(F)c2)cc1 [Compound 11f] | 93.2
4) Cc1ccc(-c2ccc(F)cc2NC(=O)c2ccc(OCC(=O)O)cc2C)cc1 | 189
5) Cc1ccc(-c2ccc(F)cc2NC(=O)c2ccc(OCCCC(=O)O)cc2C)cc1 | 246
